Test system: OVCAR-4 ovarian
Assay: NCI tumour cell line growth inhibition, 48 h
Provide the recorded TGI for the entries that follow.

Q: Find the recorded TGI belonging to O=c1[nH]cnc2[nH]cc(CN3CCCCC3)c12 and report it.
Ans: > 100 µM

Q: Find the recorded TGI belonging to Cc1ccc2ccc(O)cc2c1 and report it.
Ans: 52 µM

Q: Find the recorded TGI belonging to CC1=NN(C2=NS(=O)(=O)c3ccccc3N2C)C(=O)C1 and report it.
Ans: > 100 µM

Q: Find the recorded TGI belonging to N#Cc1c(O)c(C=Nc2ccc(Cl)cc2)c(=O)n2c1[nH]c1ccccc12 and report it.
Ans: > 100 µM

Q: Find the recorded TGI belonging to CCOC(=O)c1ccc2c(c1)c1c(C)c3cnccc3c(C)c1n2C and report it.
Ans: 0.697 µM

Q: Find the recorded TGI belonging to Cc1nc(Nc2ccc(Cl)cc2Cl)sc1C(=O)Nc1ccccc1 and report it.
Ans: > 100 µM

Q: Find the recorded TGI belonging to COc1ccc(-c2nnc(-c3nsc4ccccc34)o2)cc1 and report it.
Ans: > 100 µM

Q: Find the recorded TGI belonging to O=C1NC(c2cccc3ccccc23)Nc2ccc(O)cc21 (centres undefined) and report it.
Ans: > 150 µM

Q: Find the recorded TGI belonging to O=C1C=C(Nc2ccccc2C(=O)c2ccccc2)c2ccccc2C1=O and report it.
Ans: > 100 µM

Q: Find the recorded TGI belonging to CNS(=O)(=O)NN(C)S(=O)(=O)c1ccc(OC)cc1 and report it.
Ans: > 100 µM

Q: Find the recorded TGI belonging to COC(=O)CCC(NC(=S)N/N=C(\C)c1ccco1)C(=O)OC (centres undefined) and report it.
Ans: > 100 µM

Q: Find the recorded TGI belonging to CCOC(=O)C(NC(=O)c1ccccc1)(Nc1cc(C)on1)C(F)(F)F (centres undefined) and report it.
Ans: > 100 µM

Q: Find the recorded TGI belonging to COc1ccc(/C=C/C(=O)c2ccc(NC(=O)CSc3nnc(-c4ccc(OC)c(OC)c4)n3-c3ccccc3)cc2)cc1 and report it.
Ans: 4.75 µM

Q: Find the recorded TGI belonging to COC(=O)C1SC(N(C)c2ccccc2)=NC12c1ccccc1Nc1ccccc12 (centres undefined) and report it.
Ans: 73.9 µM

---

System: UACC-257 melanoma
Assay: NCI tumour cell line growth inhibition, 48 h
Provide the recorded TGI for the entries that follow.
The response must be a number in µM with no trailing unit.

Q: Find the recorded TGI belonging to CCC[CH2][Sn]1([CH2]CCC)[O]CC(c2ccccn2)C[O]1 and report it.
Ans: 32.4

Q: Find the recorded TGI belonging to C/C(=C\CO)CC/C=C(\C)CNc1ccccc1 and report it.
Ans: 91.8

Q: Find the recorded TGI belonging to CCCCC1C=Cn2c(=O)oc3c(OC(C)C)c(OC(C)C)c(O)c1c32 (stereo not given) and report it.
Ans: 41.7

Q: Find the recorded TGI belonging to CCSc1nc2[nH]c(=S)[nH]c(=S)c2c(-c2ccc(OC)c(OC)c2)c1C#N and report it.
Ans: 43.7

Q: Find the recorded TGI belonging to C=CCSSC1N=CNc2nc[nH]c21 (stereo not given) and report it.
Ans: 16.8

---

System: OVCAR-4 ovarian
Test: NCI tumour cell line growth inhibition, 48 h
Provide the recorded TGI for the entries that follow.

Q: GET /values?readout=TGI&system=OVCAR-4 ovarian&item= CC1=C(/C=C/C(C)=C/C=C/C(C)=C/C=C/C=C(C)/C=C/C=C(C)/C=C/C=C(C)/C=C/C=C(\C)C(=O)O)C(C)(C)CCC1
Ans: > 100 µM

Q: GET /values?readout=TGI&system=OVCAR-4 ovarian&item= CC(=O)c1c(C)cn(S(=O)(=O)NC(=O)Nc2nncs2)c1C
Ans: > 100 µM

Q: GET /values?readout=TGI&system=OVCAR-4 ovarian&item= Brc1ccc2c(C3CN[C@@H](c4c[nH]c5cc(Br)ccc45)CN3)c[nH]c2c1 (stereo partly specified)
Ans: 13.6 µM

Q: GET /values?readout=TGI&system=OVCAR-4 ovarian&item= Cc1cn(C(=O)NC23CC4CC(CC(C4)C2)C3)c(=O)[nH]c1=O
Ans: > 100 µM

Q: GET /values?readout=TGI&system=OVCAR-4 ovarian&item= COC(=O)C(C(=O)C(=O)Nc1nc(=S)[nH][nH]1)c1csc(N)n1 (stereo unspecified)
Ans: > 100 µM

Q: GET /values?readout=TGI&system=OVCAR-4 ovarian&item= CC[C@H](Nc1cc(C)nc(N)n1)c1nc2cccc(NCc3ccc(C(=O)NO)cc3)c2c(=O)n1-c1ccccc1
Ans: 4.12 µM

Q: GET /values?readout=TGI&system=OVCAR-4 ovarian&item= COc1cccc2c1C(=O)C1(O)CCCCC21 (stereo unspecified)
Ans: > 100 µM

Q: GET /values?readout=TGI&system=OVCAR-4 ovarian&item= CC(C)(NO)/C(=N\O)c1ccco1
Ans: > 100 µM

Q: GET /values?readout=TGI&system=OVCAR-4 ovarian&item= Cc1cc(CN2CCCCC2)c(O)c(CN2CCCCC2)c1
Ans: > 100 µM

Q: GET /values?readout=TGI&system=OVCAR-4 ovarian&item= Cc1ccc2cc3c(N)c4c(C)ccc(C)c4nc3nc2c1
Ans: 14.8 µM

Q: GET /values?readout=TGI&system=OVCAR-4 ovarian&item= O=C1OC(c2ccc(O)c(F)c2)(c2ccc(O)c(F)c2)c2cccc3cccc1c23
Ans: 0.193 µM

Q: GET /values?readout=TGI&system=OVCAR-4 ovarian&item= O=C(N/N=C\c1c(O)ccc2ccccc12)c1ccncc1
Ans: > 22.2 µM

Q: GET /values?readout=TGI&system=OVCAR-4 ovarian&item= COc1ccc([C@H]2[C@H](C)C3=Nc4ccccc4CN32)cc1
Ans: > 100 µM

Q: GET /values?readout=TGI&system=OVCAR-4 ovarian&item= COc1ccc(/C(COc2ccc3c(c2)oc(=O)c2cc(OC)ccc23)=N/O)cc1
Ans: > 100 µM

Q: GET /values?readout=TGI&system=OVCAR-4 ovarian&item= CCCCSC(=CC(=O)c1cccc(C(=O)C=C(SCCCC)SCCCC)n1)SCCCC
Ans: > 100 µM

Q: GET /values?readout=TGI&system=OVCAR-4 ovarian&item= CC(C)(C)N1C(=O)N=[N+](/C(=C(\c2ccccc2)n2nc([O-])n(C(C)(C)C)c2=O)c2ccccc2)C1=O
Ans: > 100 µM

Q: GET /values?readout=TGI&system=OVCAR-4 ovarian&item= CCCCc1[nH]ccc2c(C)c3nc4ccccc4c3cc12
Ans: 13.5 µM

Q: GET /values?readout=TGI&system=OVCAR-4 ovarian&item= Cn1cnc2[nH]c(=O)[nH]c(=S)c21
Ans: > 100 µM

Q: GET /values?readout=TGI&system=OVCAR-4 ovarian&item= Cc1ccc(C2(C)CC/C(=N/N=C3/CCC(C)(c4ccc(C)c(C)c4)c4cc(C)c(C)cc43)c3cc(C)c(C)cc32)cc1C (stereo unspecified)
Ans: > 100 µM

Q: GET /values?readout=TGI&system=OVCAR-4 ovarian&item= NC(C(=O)O)c1cc(=O)[nH]o1 (stereo unspecified)
Ans: > 100 µM

Q: GET /values?readout=TGI&system=OVCAR-4 ovarian&item= CC(C)(C)OCC1NC(=O)[C@@H]2Cc3c([nH]c4ccccc34)C(C3CCCCC3)N2C1=O (stereo partly specified)
Ans: > 100 µM
